assay: Cytotoxicity against human Huh7.5 cells after 48 hrs by MTS assay; type: cell-based; details: huh-7, 48 h
TEST READOUT: CC50

Here's what some known entries look like.
Lab book: CC50 of `O=C(O)c1cc(-c2ccncc2)nc2ccccc12` noted as > 200 µM

Lab book: CC50 of `COc1ccc(-c2cc3c(n2Cc2ccccc2)CCCC3)cc1` noted as 137 µM

Lab book: CC50 of C[C@@]12CC3C(=O)N4[C@H](C[C@@]5(C)C(=O)CCCC[C@@H]45)C(=O)N3[C@@H]1CCCCC2=O (mixture of isomers) noted as > 200 µM

Lab book: CC50 of `Cc1nc2c(c(C)nn2-c2ccccc2)c(C)c1CCC(=O)O` noted as > 200 µM

Lab book: CC50 of O=C(O)C1CC(=O)N(CCc2c[nH]c3ccccc23)C1 (stereo unspecified) noted as > 200 µM

Lab book: CC50 of CCOC(=O)C(C)n1c(-c2ccccc2)cc2c1CCCC2 (racemic) noted as 84.3 µM

Lab book: CC50 of `Cc1ccc2[nH]c(=O)c(CN(Cc3ccccc3)C(=O)c3ccc(NC(=N)N)cc3)cc2c1` noted as > 200 µM

Lab book: CC50 of `c1ccc(Cn2c(-c3cccnc3)cc3c2CCCC3)cc1` noted as < 25 µM

Lab book: CC50 of Cc1cccc(N2CC(c3nc4ccccc4[nH]3)CC2=O)c1 (stereo unspecified) noted as > 200 µM

Lab book: CC50 of Br.CC(=O)N[C@]12CCN(Cc3ccccc3)C[C@H]1[C@H](c1ccccc1)NC2 (racemic) noted as > 200 µM

More entries:
Lab book: CC50 of Br.CC(=O)[C@]12CCN(Cc3ccccc3)C[C@H]1[C@H](c1ccccc1)NC2 (racemic) noted as > 200 µM

Lab book: CC50 of O=C1CC(c2nc3ccccc3[nH]2)CN1Cc1ccccc1 (stereo unspecified) noted as > 200 µM

Lab book: CC50 of `Cc1nn(Cc2ccccc2)c(C)c1CC(=O)O` noted as > 200 µM

Lab book: CC50 of `NC(=O)Cn1c(-c2ccccc2)cc2c1CCCC2` noted as > 200 µM

Lab book: CC50 of `Cc1ccc(CN(Cc2cc3cc(C)ccc3[nH]c2=O)C(=O)c2ccc(CN3CCN(C)CC3)cc2)cc1` noted as < 25 µM

Lab book: CC50 of `CCOC(=O)[C@@H](C)N1C(=O)C(=O)c2ccccc21` noted as > 200 µM

---

experiment: Cytotoxicity against human Huh7.5 cells after 48 hrs by MTS assay; format: cell-based; conditions: huh-7, 48 h
TEST READOUT: CC50

Lab book: CC50 of C[C@@]12C[C@@H]3C(=O)Nc4ccccc4C(=O)N3[C@@H]1CCCCC2=O (racemic) noted as > 200 µM

Lab book: CC50 of `Cc1ccc2[nH]c(=O)c(CN(Cc3ccc(F)cc3)C(=O)c3ccc(NC(=N)N)cc3)cc2c1` noted as > 200 µM

Lab book: CC50 of O=C1CC(c2nc3ccccc3[nH]2)CN1C1CCCCC1 (stereo not given) noted as > 200 µM

Lab book: CC50 of `Cc1ccc2[nH]c(=O)c(CN(CCc3ccccc3)C(=O)c3ccc(OCCN(C)C)cc3)cc2c1` noted as > 200 µM

Field: next compound
Lab book: CC50 of `COc1cccc(C(=O)Nc2cc(C)nc3ccc(C)cc23)c1` noted as < 25 µM
